- Test system: PC-3
- Measurement Description: Growth inhibition of human PC3 cells after 4 days by SRB assay
- Type: functional
- Reported Conditions: PC-3, 96 h
Experimental Readout: GI50 (nM)
One number for each entry, in nM.

These solved cases illustrate the format of a correct answer.
C/C(=C\c1csc(C)n1)[C@@H]1C[C@@H]2O[C@]2(C)CCC[C@H](C)[C@H](O)[C@@H](C)C(=O)C(C)(C)[C@@H](O)CC(=O)O1 :: 1.7
CC(=O)O[C@H]1C(=O)[C@@]2(C)[C@H]([C@H](OC(=O)c3ccccc3)[C@]3(O)C[C@H](OC(=O)[C@H](O)[C@@H](NC(=O)c4ccccc4)c4ccccc4)C(C)=C1C3(C)C)[C@]1(OC(C)=O)CO[C@@H]1C[C@@H]2O :: 5.8
CC(=O)NCCCC[C@H]1C(=O)C(C)(C)[C@@H](O)CC(=O)O[C@H](/C(C)=C/c2csc(C)n2)C[C@@H]2O[C@]2(C)CCC[C@H](C)[C@@H]1O :: 2

Okay, next one:
GI50 reading for "COCCOCCC(=O)NCCCC[C@H]1C(=O)C(C)(C)[C@@H](O)CC(=O)O[C@H](/C(C)=C/c2csc(C)n2)C[C@@H]2O[C@]2(C)CCC[C@H](C)[C@@H]1O" : 1.9

----------
Provide the reported GI50 of each item.
- System: A549
- Measurement Description: Growth inhibition of human A549 cells after 4 days by SRB assay
- Format: functional
- Reported Conditions: A549, 96 h
Give bare numbers, in nM.

These solved cases illustrate the format of a correct answer.
CC(=O)O[C@H]1C(=O)[C@@]2(C)[C@H]([C@H](OC(=O)c3ccccc3)[C@]3(O)C[C@H](OC(=O)[C@H](O)[C@@H](NC(=O)c4ccccc4)c4ccccc4)C(C)=C1C3(C)C)[C@]1(OC(C)=O)CO[C@@H]1C[C@@H]2O :: 3.7
CC(=O)NCCCC[C@H]1C(=O)C(C)(C)[C@@H](O)CC(=O)O[C@H](/C(C)=C/c2csc(C)n2)C[C@@H]2O[C@]2(C)CCC[C@H](C)[C@@H]1O :: 1
C/C(=C\c1csc(C)n1)[C@@H]1C[C@@H]2O[C@]2(C)CCC[C@H](C)[C@H](O)[C@@H](C)C(=O)C(C)(C)[C@@H](O)CC(=O)O1 :: 0.7

Okay, next one:
GI50 reading for "COCCOCCC(=O)NCCCC[C@H]1C(=O)C(C)(C)[C@@H](O)CC(=O)O[C@H](/C(C)=C/c2csc(C)n2)C[C@@H]2O[C@]2(C)CCC[C@H](C)[C@@H]1O" : 0.9

Origin of measurements: ChEMBL document CHEMBL4033765
